# experimental-system: T1, human serum albumin (human, UniProt P02768 25-609)
# T1 construct: also called HSA
# experimental-details: SPR (Biacore T100), periplasmic extracts over immobilized human serum albumin

binder: 4C8 (VHH, Tested as periplasmic extract) VHH: EVQLVESGGGLVQAGDSLRLSCAASGRTYTPYVMGWFRRAPGKEREFVGAVSWSGTNTWYTDSVKGRFTISRDNAKNTVYLQMNSLKPEDTAVYYCAAGDGVGIYRYEHQYDYWGQGTQVTVSS
binding result: binds
//
binder: 4C5 (VHH, Tested as periplasmic extract; also called 4CS) VHH: EVQLVESGGGLVQAGDSLRLSCAASGRPFSAYVMGWFRRAPGKEREFVGGINWNSANTWYTDSVLGRFTISKDNAKNTVYLQMNSLKPEDTAVYYCAAAGGVGYYRYERQYDYWGQGTQVTVSS
binding result: binds
//
binder: 4C9 (VHH, Tested as periplasmic extract) VHH: EVQLVESGGGLVQAGDSLRLSCTASERPFSTYVMGWFRRAPGKEREFVGGITWSGINAWYTDSVLGRFTISSDNAKNTVYLQMNSLKPEDTAVYYCAAASGVGRYRYELQYDYWGQGTQVTVSS
binding result: binds
